Molecular target: T1, human plasminogen activator inhibitor-1 (human, UniProt P05121 24-402)
T1 construct: also called hPAI-1; human PAI-1
T1 sequence (P05121 24-402 limits assumed): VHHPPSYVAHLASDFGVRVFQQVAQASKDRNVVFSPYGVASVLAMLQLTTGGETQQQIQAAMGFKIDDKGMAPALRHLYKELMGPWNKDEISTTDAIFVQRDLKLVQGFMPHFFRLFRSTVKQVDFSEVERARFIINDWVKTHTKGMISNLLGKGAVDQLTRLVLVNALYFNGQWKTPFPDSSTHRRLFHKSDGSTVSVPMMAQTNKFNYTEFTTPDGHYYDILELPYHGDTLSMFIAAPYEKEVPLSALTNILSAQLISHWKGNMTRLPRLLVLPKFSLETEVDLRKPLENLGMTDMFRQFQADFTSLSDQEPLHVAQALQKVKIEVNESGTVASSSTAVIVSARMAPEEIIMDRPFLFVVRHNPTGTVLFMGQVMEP
Test: specificity test of Example 1 (refers to FIG. 2E-G)
quantity name: binding result

B11 (VHH, Monovalent VHH from the synthetic hs2dAb library, made in E. coli WK6, purified by its His tag, detected by anti-cMyc or anti-6xHis; also called VHH B11; BI 1; not shown: cMyc tag and 6xHis tag (pHEN2 vector)) VHH: EVQLQASGGGFVQPGGSLRLSCAASGSTWFREIMGWFRQAPGKEREFVSAISSDPTWHAYYADSVKGRFTISRDNSKNTVYLQMNSLRAEDTATYYCAPLAGTESIHWWDPWHESSYWGQGTQVTVSS    no binding
B11-Bv (VHH, Bivalent (monoparatopic) tandem of two B11 VHHs; also called bivalent hybribody B11-Bv; bivalent VHH B11bv) EVQLQASGGGFVQPGGSLRLSCAASGSTWFREIMGWFRQAPGKEREFVSAISSDPTWHAYYADSVKGRFTISRDNSKNTVYLQMNSLRAEDTATYYCAPLAGTESIHWWDPWHESSYWGQGTQVTVSSAAAEVQLQASGGGFVQPGGSLRLSCAASGSTWFREIMGWFRQAPGKEREFVSAISSDPTWHAYYADSVKGRFTISRDNSKNTVYLQMNSLRAEDTATYYCAPLAGTESIHWWDPWHESSYWGQGTQVTVSSHHHHHH    no binding
B11-F06 (VHH, Bivalent (biparatopic) tandem B11-linker-F06; also called bivalent hybribody B11-F06; bivalent VHH B11F06) EVQLQASGGGFVQPGGSLRLSCAASGSTWFREIMGWFRQAPGKEREFVSAISSDPTWHAYYADSVKGRFTISRDNSKNTVYLQMNSLRAEDTATYYCAPLAGTESIHWWDPWHESSYWGQGTQVTVSSGGGSGGGSGGGSGGGSEVQLQASGGGFVQPGGSLRLSCAASGDTWSLEIMGWFRQAPGKEREFVSAISSEDGWHAYYADSVKGRFTISRDNSKNTVYLQMNSLRAEDTATYYCAKIENWIQAVEGEMSDYWGQGTQVTVSSHHHHHH    no binding
